Test system: Liver
Assay text: Protein binding in phenobarbital pretreated Sprague-Dawley rat liver protein at 4.6 to 23 mmol/kg, ip measured per mg of protein up to 24 hrs by scintillation counting
Type: ADME, organism-based
Measurement setup: in vivo
Value kind: PB

[
  {
    "Molecule": "F[14C](F)(F)C(Cl)Br (stereo unspecified)",
    "Value kind": "PB",
    "Measurement": "> 2 nmol/mg"
  }
]
